Target: F666A mutant TRPV3 (Mus musculus, UniProt Q8K424, F666A)
Sequence (Q8K424 1-791 F666A): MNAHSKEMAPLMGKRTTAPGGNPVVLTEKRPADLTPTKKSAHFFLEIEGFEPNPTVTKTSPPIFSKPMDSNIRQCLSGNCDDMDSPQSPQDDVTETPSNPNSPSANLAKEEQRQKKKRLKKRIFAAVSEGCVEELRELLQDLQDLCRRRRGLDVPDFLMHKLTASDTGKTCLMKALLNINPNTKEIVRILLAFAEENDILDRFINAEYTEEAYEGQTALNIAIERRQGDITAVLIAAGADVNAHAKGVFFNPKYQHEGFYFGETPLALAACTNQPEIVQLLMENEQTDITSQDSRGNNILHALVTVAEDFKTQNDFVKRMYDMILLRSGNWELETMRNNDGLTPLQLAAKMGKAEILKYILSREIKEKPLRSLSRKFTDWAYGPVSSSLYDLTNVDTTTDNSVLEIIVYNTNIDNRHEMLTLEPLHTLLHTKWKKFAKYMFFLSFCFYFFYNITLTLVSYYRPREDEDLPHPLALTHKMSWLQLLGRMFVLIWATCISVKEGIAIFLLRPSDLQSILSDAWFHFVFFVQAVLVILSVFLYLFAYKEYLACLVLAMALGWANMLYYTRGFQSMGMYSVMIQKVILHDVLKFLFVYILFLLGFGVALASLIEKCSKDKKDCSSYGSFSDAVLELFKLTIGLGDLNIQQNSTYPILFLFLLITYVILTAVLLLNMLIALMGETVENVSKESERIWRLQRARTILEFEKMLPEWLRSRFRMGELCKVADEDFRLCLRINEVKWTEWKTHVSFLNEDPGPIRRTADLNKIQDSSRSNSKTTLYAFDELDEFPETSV
Assay: Fura-2 ratiometric Ca2+ measurement, activation by 2-APB
Conditions: n = 3; read-out: EC50, 2-APB-induced activation of F666A
ASSAY ENDPOINT: pEC50
One number for each entry, as −log10 of the molar value.

pEC50 recorded for this compound, `NCCOB(c1ccccc1)c1ccccc1` , is 4.68
